Entries and their kon
biological target: T1, human CD33 extracellular domain (human, UniProt P20138 18-259); test: BLI Octet, IgG loaded;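 note: IgGs captured on AHC biosensors, exposed to 100 nM antigen for 3 min association then 3 min dissociation in buffer, kinetics fitted with a 1:1 binding model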
T1 construct: soluble monomeric ECD; also called human CD33 ECD; hCD33

>  <binder>
ADI-10161 IgG (antibody, V domains shown, IgG; also called Ab16) VH: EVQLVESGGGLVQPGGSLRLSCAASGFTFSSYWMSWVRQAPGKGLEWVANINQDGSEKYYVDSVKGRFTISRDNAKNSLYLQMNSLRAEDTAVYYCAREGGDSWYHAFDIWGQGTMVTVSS VL: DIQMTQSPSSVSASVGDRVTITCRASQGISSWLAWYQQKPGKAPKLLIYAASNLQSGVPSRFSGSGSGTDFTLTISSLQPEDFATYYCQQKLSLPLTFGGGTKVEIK

>  <result-units>
M⁻¹ s⁻¹

>  <kon>
587000

$$$$
>  <binder>
ADI-11815 IgG (antibody, V domains shown, IgG; also called Ab7) VH: QVQLVQSGAEVKKPGASVKVSCKASGYTFGTYYMHWVRQAPGQGLEWMGIINPSRGSTVYAQKFQGRVTMTRDTSTSTVYMELSSLRSEDTAVYYCARGAGYDDEDMDVWGKGTTVTVSS VL: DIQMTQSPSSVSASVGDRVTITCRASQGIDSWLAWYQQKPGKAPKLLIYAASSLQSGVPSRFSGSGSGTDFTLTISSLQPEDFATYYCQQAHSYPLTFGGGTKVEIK

>  <result-units>
M⁻¹ s⁻¹

>  <kon>
159000

$$$$
